Hi there, I'd appreciate the recorded IC50 for every entry that follows.
Tested System: purified DHFR of the reference strain S. aureus ATCC 25923 (Staphylococcus aureus, UniProt P0A017)
Sequence (P0A017 whole entry): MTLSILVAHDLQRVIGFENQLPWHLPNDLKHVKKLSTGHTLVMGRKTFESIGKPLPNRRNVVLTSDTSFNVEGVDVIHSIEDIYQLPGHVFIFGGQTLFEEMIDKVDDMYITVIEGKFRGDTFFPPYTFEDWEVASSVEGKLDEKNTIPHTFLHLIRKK
Measurement Description: Inhibition of purified DHFR of reference strain S. aureus ATCC 25923
A complete answer gives the number followed by the unit.

## Task Specify reported IC50 for the compound shown: COc1c(OCCCC(=O)O)cc(Cc2cnc(N)nc2N)c2c1OCC=C2
## Result 5 nM

## Task Hello, please tell me recorded IC50 for this one: CCCCCC1C=Cc2c(Cc3cnc(N)nc3N)cc(OC)c(OC)c2O1 (racemic)
## Result 16 nM

## Task Input COc1cc(Cc2cnc(N)nc2N)c2c(c1OC)OC(CC(C)C)C=C2 (racemic) , output reported IC50.
## Result 1 nM

## Task State, in one line, measured IC50 of COc1cc(Cc2cnc(N)nc2N)c2c(c1OC)OC(C(C)C)C=C2 (racemic)
## Result 1 nM

## Task Answer with reported IC50 of COc1cc(Cc2cnc(N)nc2N)c2c(c1OC)OC(CCCC(=O)O)C=C2 (racemic)
## Result 5 nM

Where these numbers come from: patent US5773446A
